Recorded cell viability for the following molecules
system: Caco-2; assay: cell viability relative to DMSO; higher = less toxic; settings: 72 h; 10 nM
metric_name: cell viability (%)

molecule: O=C1CCC[C@@H]2[C@H]3C[C@@H](CN12)[C@@H]1CCCCN1C3 [lupanine]
target_of_assay: Caco-2
recorded_value: 92.8
--
molecule: Oc1cc(O)c2c(c1)O[C@H](c1ccc(O)c(O)c1)[C@@H](O)C2 [cianidanol]
target_of_assay: Caco-2
recorded_value: 89.6
--
molecule: NC(=S)N/N=C/c1ccncc1 [perchlozone]
target_of_assay: Caco-2
recorded_value: 100
--
molecule: CN(C)C/C=C/C(=O)Nc1cc2c(Nc3ccc(F)c(Cl)c3)ncnc2cc1O[C@H]1CCOC1 [afatinib]
target_of_assay: Caco-2
recorded_value: 90.4
--
molecule: Oc1cc2c(cc1O)[C@H]1c3ccccc3CN[C@@H]1CC2 (racemic) [dihydrexidine]
target_of_assay: Caco-2
recorded_value: 97.7
--
molecule: CC(=O)Nc1ccc(O)cc1 [paracetamol]
target_of_assay: Caco-2
recorded_value: 103

* * *

tested on: Calu-3; assay: cell viability relative to DMSO; higher = less toxic; settings: 72 h; 10 nM
Recorded cell viability values for a group of compounds are listed next.
metric_name: cell viability (%)

compound: C[C@H]1[C@H](C)CC[C@]2(C(=O)O)CC[C@]3(C)C(=CC[C@@H]4[C@@]5(C)C[C@@H](O)[C@H](O)C(C)(C)[C@@H]5CC[C@]43C)[C@H]12
recorded_value: 106
--
compound: COc1cccc(CN(C(=O)CC(C)(C)C)[C@H]2C[C@@H](C(=O)N3CCNCC3)N(Cc3ccc4c(c3)OCO4)C2)c1
recorded_value: 98
--
compound: CC(=O)OCC(=O)[C@H]1CC[C@H]2[C@@H]3CC[C@H]4C[C@H](O)CC[C@]4(C)[C@H]3C(=O)C[C@]12C [alfadolone-acetate]
recorded_value: 101

* * *

test system: U2OS; test: cell viability relative to DMSO; higher = less toxic; settings: 72 h; 1 nM
metric_name: cell viability

molecule: COc1ncc(-c2ccc3nccc(-c4ccnnc4)c3c2)cc1NS(=O)(=O)c1ccc(F)cc1F
recorded_value: 91%
//
molecule: O=C(NCCCNc1nc(Nc2cccc(NC(=O)N3CCCC3)c2)ncc1I)c1cccs1 [BX-795]
recorded_value: 104%
//
molecule: CCN(CC)c1ccc(/C=N/NC(=O)c2ccc(O)cc2)cc1 [DY131]
recorded_value: 99.6%
//
molecule: OC[C@H]1O[C@H](O[C@H]2O[C@H](CO)[C@@H](O)[C@H](O)[C@H]2O)[C@H](O)[C@@H](O)[C@@H]1O [cabaletta]
recorded_value: 99.1%

* * *

Reported values of cell viability for individual entries
tested on: Calu-3; test: cell viability relative to DMSO; higher = less toxic; conditions: 72 h; 100 nM
metric_name: cell viability (%)

compound: COc1ccc(-c2nc3cc(C4=NNC(=O)CC4C)ccc3[nH]2)cc1 (configuration not stated)
metric_name: cell viability
recorded_value: 112
//
compound: CNc1nc(C)nc(N[C@H]2CCC[C@@H](C(=O)NCc3ccc(C#N)cc3C(F)(F)F)C2)n1
metric_name: cell viability
recorded_value: 97
//
compound: CCCCc1ccc(C(N)=O)nc1 [bupicomide]
metric_name: cell viability
recorded_value: 103
//
compound: C[C@@H]1CCO[C@H]2Cn3cc(C(=O)NCc4ccc(F)cc4F)c(=O)c(O)c3C(=O)N12
metric_name: cell viability
recorded_value: 101
//
compound: O=c1c(O)c(-c2ccc(O)c(O)c2)oc2cc(O)cc(O)c12
metric_name: cell viability
recorded_value: 92.4
//
compound: Oc1c(Br)cc(Br)c2cccnc12
metric_name: cell viability
recorded_value: 90.7
//
compound: CN(C)Cc1ccc(S(=O)(=O)n2ccc(/C=C/C(=O)NO)c2)cc1
metric_name: cell viability
recorded_value: 92.9
//
compound: CO[C@H]1/C=C/O[C@@]2(C)Oc3c(C)c(O)c4c(O)c(c(/C=N/N5CCN(C)CC5)c(O)c4c3C2=O)NC(=O)/C(C)=C\C=C\[C@H](C)[C@H](O)[C@@H](C)[C@@H](O)[C@@H](C)[C@H](OC(C)=O)[C@@H]1C
metric_name: cell viability
recorded_value: 98.7
//
compound: Nc1cccc(CNC(=O)c2ccc(Oc3ccc(OCc4cccc(F)c4)cc3)nc2)c1
metric_name: cell viability
recorded_value: 96.1
//
compound: C#Cc1cncc([C@@H]2CCCN2C)c1
metric_name: cell viability
recorded_value: 93.9
//
compound: COC(=O)C1=C(C)N(C)C(C)=C(C(=O)OC)C1c1ccc(C(F)(F)F)cc1
metric_name: cell viability
recorded_value: 93.4
//
compound: CCOc1ccccc1-n1c(C(C)N2CCN(C(=O)COc3ccc(Cl)cc3)CC2)nc2ccccc2c1=O (configuration not stated)
metric_name: cell viability
recorded_value: 109
//
compound: O=C(NC(O)C(Cl)(Cl)Cl)NC(O)C(Cl)(Cl)Cl (configuration not stated)
metric_name: cell viability
recorded_value: 102
//
compound: COc1cc(C[C@H]2c3cc(OC)c(OC)cc3CCN2C)c(Oc2cc3c(cc2OC)-c2c(OC)c(OC)cc4c2[C@H](C3)N(C)CC4)cc1OC
metric_name: cell viability
recorded_value: 97.1
//
compound: CN1CCN(CCOc2cc(OC3CCOCC3)c3c(Nc4c(Cl)ccc5c4OCO5)ncnc3c2)CC1
metric_name: cell viability
recorded_value: 95
//
compound: CCN[C@@H](C)Cc1cccc(C(F)(F)F)c1
metric_name: cell viability
recorded_value: 105
//
compound: Cc1nnc(C(=O)NC(C)(C)c2nc(C(=O)NCc3ccc(F)cc3)c(O)c(=O)n2C)o1
metric_name: cell viability
recorded_value: 99

Cited source for all entries: the supplement of paper PMC13380429
